- System: ULK1;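 further: KINOMEscan kinase panel screen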
- MEASUREMENT_CONTEXT: concentration: 1 μM, replicates: in singlicate; n = 1
Catalogue of %Inh values
Please state the figure in %; there is no need to write the unit.

Some solved cases for reference:
[[record]]
compound = "Cc1ccc(Oc2ccc(Nc3ncnc4cc[nH]c34)cc2C)cn1"
endpoint_value = 11

[[record]]
compound = "CCC(=O)c1c(-c2ccccc2)c2cc(Cl)ccc2c(=O)n1Cc1cc(S(C)(=O)=O)n(CC(F)F)n1"
endpoint_value = 0

[[record]]
compound = "CCCC(=O)Nc1n[nH]c2ncc(-c3cccc4ccccc34)cc12"
endpoint_value = 18

[[record]]
compound = "CCn1c(-c2ccoc2)nc2cnccc21"
endpoint_value = 29


Lookup: Dear colleague, I am looking for the recorded %Inh of the following compound: `COc1ccc(-n2cnc3c(N)ncnc32)cc1`
Found: 21

Lookup: Dear colleague, I am looking for the recorded %Inh of the following compound: `Cc1ccccc1COc1cc(-n2cnc3cc(Cl)ccc32)sc1C(N)=O`
Found: 0

Lookup: Dear colleague, I am looking for the recorded %Inh of the following compound: COc1ccc(CNC(=O)NC2CCN(c3ccnc(Nc4ccc(F)cc4)n3)C2)cc1 (stereo not drawn)
Found: 0

Lookup: Dear colleague, I am looking for the recorded %Inh of the following compound: `CN1C(=O)C(Nc2ccccc2)=C(c2ccccc2)C1=O`
Found: 6

Lookup: Dear colleague, I am looking for the recorded %Inh of the following compound: `FC(F)(F)c1ccc(-c2ncn(CCCN3CCOCC3)c2-c2ccncc2)cc1`
Found: 1
